molecular target: UniProt:Q9RUB5; assay: biochemical; type: biochemical; settings: IC50, Fig. 5F/G; DrDXPS (WT); [ThDP] 0.1 μM (1.6x Km), [PYR] […] (1.2x), [D-GAP] […] (1.5x)
Sequence (Q9RUB5 whole entry, looked up): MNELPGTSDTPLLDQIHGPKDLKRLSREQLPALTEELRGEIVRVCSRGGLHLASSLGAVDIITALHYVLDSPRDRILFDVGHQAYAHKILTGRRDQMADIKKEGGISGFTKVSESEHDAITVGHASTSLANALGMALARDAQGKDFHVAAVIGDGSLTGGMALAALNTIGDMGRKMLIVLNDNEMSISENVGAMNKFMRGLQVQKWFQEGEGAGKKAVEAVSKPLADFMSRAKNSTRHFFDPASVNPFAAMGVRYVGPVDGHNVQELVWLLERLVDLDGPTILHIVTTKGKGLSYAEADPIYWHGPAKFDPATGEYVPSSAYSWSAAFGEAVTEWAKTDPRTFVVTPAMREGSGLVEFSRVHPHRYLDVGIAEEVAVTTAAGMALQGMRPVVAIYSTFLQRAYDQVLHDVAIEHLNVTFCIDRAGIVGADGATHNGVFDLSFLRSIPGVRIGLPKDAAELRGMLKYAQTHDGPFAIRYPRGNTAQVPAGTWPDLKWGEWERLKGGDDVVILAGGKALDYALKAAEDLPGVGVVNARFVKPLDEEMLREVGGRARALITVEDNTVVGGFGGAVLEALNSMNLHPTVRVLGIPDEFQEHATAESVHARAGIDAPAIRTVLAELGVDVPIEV
pIC50 reference
Keep it numeric: pIC50 is minus log10 of the concentration in mol/L.

* ON=C(Cc1ccc(Cl)cc1)c1ccc(O)cc1O | 4.48

Next:
Report measured pIC50; entry is Cc1nc(N)sc1-c1csc(Nc2ccc(C(F)(F)F)cc2)n1 4.22

###

MIC reference
test system: E. coli strain BL21 (DE3) pET22b-H6[…]; assay: microbe, parasite or virus in culture; type: cell-based; settings: Escherichia coli, Fig. 6B; [IPTG] 0 mM
Please state the figure in µM; there is no need to write the unit.

Example compounds with recorded MIC:
• OCc1cn(Cc2ccc(Cl)c(Cl)c2)c2ccccc12 = 10
• Cc1nc(N)sc1-c1csc(Nc2ccc(C(F)(F)F)cc2)n1 = 13
• ON=C(Cc1ccc(Cl)cc1)c1ccc(O)cc1O = 15

Next:
Report measured MIC; entry is O=CN(O)CCCP(=O)(O)O [Fosmidomycin, fosmidomycin, reference compound] 56

###

biological target: UniProt:Q9RUB5; assay: biochemical; format: biochemical; conditions: IC50, Fig. 5F/G; DrDXPS (WT); [ThDP] 0.2 μM (3.2x Km), [PYR] […] (1.2x), [D-GAP] […] (1.5x)
metric.name: IC50 (µM)
Please state the figure in µM; there is no need to write the unit.

Report measured IC50; entry is ON=C(Cc1ccc(Cl)cc1)c1ccc(O)cc1O [Compound 9] 54

Report measured IC50; entry is Cc1nc(N)sc1-c1csc(Nc2ccc(C(F)(F)F)cc2)n1 [Compound 10] 81

###

target: MtDXPS (Mycobacterium tuberculosis, UniProt P9WNS3); assay: biochemical; conditions: Table S2, second round of LBVS; MtDXPS; read-out: IC50
Sequence (P9WNS3 whole entry, looked up): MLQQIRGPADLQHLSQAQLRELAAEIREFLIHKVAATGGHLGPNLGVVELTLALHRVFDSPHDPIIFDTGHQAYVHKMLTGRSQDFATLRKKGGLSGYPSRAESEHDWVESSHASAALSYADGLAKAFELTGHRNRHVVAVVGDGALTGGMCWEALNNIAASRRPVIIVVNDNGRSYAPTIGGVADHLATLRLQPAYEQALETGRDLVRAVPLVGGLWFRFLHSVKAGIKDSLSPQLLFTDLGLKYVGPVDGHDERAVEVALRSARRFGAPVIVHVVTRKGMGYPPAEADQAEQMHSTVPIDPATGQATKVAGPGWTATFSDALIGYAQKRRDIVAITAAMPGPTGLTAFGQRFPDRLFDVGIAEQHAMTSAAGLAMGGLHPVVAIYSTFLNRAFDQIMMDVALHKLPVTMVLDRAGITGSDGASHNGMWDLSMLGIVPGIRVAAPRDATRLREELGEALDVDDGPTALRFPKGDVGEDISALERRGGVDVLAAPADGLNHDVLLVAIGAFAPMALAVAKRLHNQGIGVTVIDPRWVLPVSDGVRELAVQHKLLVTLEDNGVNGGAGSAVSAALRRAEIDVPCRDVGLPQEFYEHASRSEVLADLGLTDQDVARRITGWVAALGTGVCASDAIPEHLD
pIC50: −log10 of the molar value.
metric.name: pIC50

Example compounds with recorded pIC50:
• O=C1/C(=N\O)c2ccc(Cl)cc2N1Cc1ccccc1 = < 3.05
• Nc1ccncc1/C(=N/O)c1ccccc1 = < 2.70
• Cc1sc(-n2c(C)cc(/C=N/O)c2C)c(C(=O)O)c1C = < 3.10

Next:
Report measured pIC50; entry is CC(C)(C)c1ccc(Cn2c(CCCO)nc3ccccc32)cc1 < 4.05

###

target: MtDXPS (Mycobacterium tuberculosis, UniProt P9WNS3); assay: biochemical; conditions: Morrison constant Ki* against MtDXPS, two-step tight-binding Morrison model, Dynafit; text and Fig. 4C–E
metric.name: pKi
Keep it numeric: pKi is minus log10 of the concentration in mol/L.

Report measured pKi; entry is OCc1cn(Cc2ccc(Cl)c(Cl)c2)c2ccccc12 5.89

###

IC50 reference
molecular target: MtDXPS (Mycobacterium tuberculosis, UniProt P9WNS3); assay: biochemical; conditions: Table S2, second round of LBVS; MtDXPS; read-out: IC50

• OCCc1nc2ccccc2n1Cc1cccc(Cl)c1 [Compound 100] = > 236 µM

Next:
Report measured IC50; entry is CCCOc1ccc(C2N=C(N)Nc3nc4ccccc4n32)cc1 (stereo not drawn) [Compound 122] > 50 µM

###

molecular target: MtDXPS (Mycobacterium tuberculosis, UniProt P9WNS3); assay: biochemical; details: K i* (μM), Table 1B, oxime derivatives, MtDXPS
metric.name: Ki (µM)
Please state the figure in µM; there is no need to write the unit.

Report measured Ki; entry is ON=C(Cc1ccc(Cl)cc1)c1ccc(O)cc1O [Compound 9] 0.3

###

tested on: E. coli strain BL21 (DE3) pET22b-H6[…]; assay: microbe, parasite or virus in culture; assay type: cell-based; details: Escherichia coli, Fig. 6B; [IPTG] 0.5 mM (MtDXPS overexpression)
metric.name: MIC (µM)
Please state the figure in µM; there is no need to write the unit.

Example compounds with recorded MIC:
• OCc1cn(Cc2ccc(Cl)c(Cl)c2)c2ccccc12 = 14
• O=CN(O)CCCP(=O)(O)O [Fosmidomycin, fosmidomycin, reference compound] = 59

Report measured MIC; entry is Cc1nc(N)sc1-c1csc(Nc2ccc(C(F)(F)F)cc2)n1 35

###

Ki reference
target: MtDXPS (Mycobacterium tuberculosis); assay: biochemical; conditions: Table 1C, aminothiazole derivatives, MtDXPS; read-out: K i*
Please state the figure in nM; there is no need to write the unit.

Example compounds with recorded Ki:
* Oc1ccc(-c2csc(Nc3cccc(C(F)(F)F)c3)n2)c(O)c1 [Compound 29] | 500
* Cc1nc(N)sc1-c1csc(Nc2ccccc2C(F)(F)F)n1 [Compound 27] | 300
* Cc1nc(N)sc1-c1csc(Nc2cccc(C(F)(F)F)c2)n1 [Compound 28] | 400

For MtDXPS (Mycobacterium tuberculosis), give Ki of the listed compound: Cc1nc(N)sc1-c1csc(Nc2ccc(Cl)cn2)n1 [Compound 30] 300

###

target: MtDXPS (Mycobacterium tuberculosis, UniProt P9WNS3); test: biochemical; conditions: K i* (μM), Table 1A, indole derivatives, MtDXPS
Ki reference

- O=Cc1cn(Cc2ccc(Cl)c(Cl)c2)c2ccccc12 [Compound 13]: > 10 µM

For MtDXPS (Mycobacterium tuberculosis, UniProt P9WNS3), give Ki of the listed compound: OCc1cn(Cc2ccc(Cl)c(Cl)c2)c2ccccc12 [Compound 7] 1.3 µM

###

target: MtDXPS (Mycobacterium tuberculosis, UniProt P9WNS3); test: biochemical; conditions: Table S3, third round of LBVS; MtDXPS; read-out: IC50
IC50 reference

- Cc1c(Cl)cccc1Nc1nc(-c2cccnc2)cs1 [Compound 135]: > 200 µM
- Cc1ccc(-c2csc(Nc3cccc(Cl)c3C)n2)cc1 [Compound 134]: > 16 µM
- Cc1nc(N)sc1-c1csc(Nc2ccccc2)n1 [Compound 26]: > 120 µM

For MtDXPS (Mycobacterium tuberculosis, UniProt P9WNS3), give IC50 of the listed molecule: Cc1nc(C)c(-c2csc(Nc3ccc(Cl)cn3)n2)s1 [Compound 31] > 500 µM

For MtDXPS (Mycobacterium tuberculosis, UniProt P9WNS3), give IC50 of the listed molecule: Cc1nc(NC(=O)c2ccccc2)sc1-c1csc(Nc2ccc(C(F)(F)F)cc2)n1 [Compound 133] > 120 µM

For MtDXPS (Mycobacterium tuberculosis, UniProt P9WNS3), give IC50 of the listed molecule: FC(F)(F)c1ccc(Nc2nc(-c3ccncc3)cs2)cc1 [Compound 132] > 60 µM

###

IC50 reference
target: MtDXPS (Mycobacterium tuberculosis, UniProt P9WNS3); assay: biochemical; conditions: IC50 against MtDXPS
Please state the figure in µM; there is no need to write the unit.

Example molecules with recorded IC50:
* Cc1nc(C)c(-c2csc(Nc3cccc(Cl)c3C)n2)s1 | 117
* Cc1nc(N)sc1-c1csc(Nc2ccc(C(F)(F)F)cc2)n1 | 118
* ON=C(Cc1ccc(Cl)cc1)c1ccc(O)cc1O | 140

Next:
Report measured IC50; entry is CC(C)c1ccc(C(C)N2Cc3nc(N)ncc3C2=O)cc1 (stereo not shown) 1020

###

pIC50 reference
biological target: MtDXPS (Mycobacterium tuberculosis); experiment: biochemical; settings: Table S1, first round of LBVS; MtDXPS; read-out: IC50
pIC50: −log10 of the molar value.

Example molecules with recorded pIC50:
• Cc1cc(C)n(CCc2nnc(S)n2-c2ccc(Br)cc2)n1 = < 3.92
• O=C1N/C(=C/c2ccc(O)c(I)c2)C(=O)N1c1ccc(Cl)cc1 = < 3.92
• Cc1cc(C)n(CCc2nnco2)n1 = < 3.00
• CN1NC(c2ccc(O)cc2)C2C(=O)NC(=O)C21 (stereo not shown) = < 3.92

For MtDXPS (Mycobacterium tuberculosis), give pIC50 of the listed molecule: Cc1nn(CCc2nnc(S)n2Cc2ccccc2)c(C)c1Br < 4.52

For MtDXPS (Mycobacterium tuberculosis), give pIC50 of the listed molecule: CC(C)c1ccc(CN(C(=O)COc2ccccc2)c2ccccn2)cc1 < 4.52

For MtDXPS (Mycobacterium tuberculosis), give pIC50 of the listed molecule: Cc1n[nH]c(O)c1C1OC(=O)c2ccccc21 (stereo not shown) < 3.00

For MtDXPS (Mycobacterium tuberculosis), give pIC50 of the listed molecule: CCn1nccc1CN(C)C(=O)C1CCC1 < 3.00

For MtDXPS (Mycobacterium tuberculosis), give pIC50 of the listed molecule: O=c1c2ncccc2nc(O)n1Cc1cccnc1 < 3.62

For MtDXPS (Mycobacterium tuberculosis), give pIC50 of the listed molecule: Cc1ccc(-n2c(S)nnc2CCn2nc(C)cc2C)cc1 < 3.30

For MtDXPS (Mycobacterium tuberculosis), give pIC50 of the listed molecule: O=C(Nc1ccc(O)cc1C(=O)O)c1ccco1 < 4.22

For MtDXPS (Mycobacterium tuberculosis), give pIC50 of the listed molecule: CC(C)(CO)NCc1cccs1 < 3.00

For MtDXPS (Mycobacterium tuberculosis), give pIC50 of the listed molecule: N=C1NC(=O)C(CC(N)=O)S1 (stereo not shown) < 3.00
